Test system: IgA, monoclonal human (Homo sapiens)
Assay: filter
Settings: pH 6, 41 mM Na+
Each item that follows carries a reported Ka.

Illustrative cases are given below, each with its answer.
Ka reading for CCTCTTCTTTTTCTTCTC [RAD20] : 7.53 log10 M-1

Record summary for GAGAGAGTTTTTGAGAGAGTTTTTCTCTCTC [RAD7] : reported Ka = 7.33 log10 M-1

// sample CCTCTTCTTTTTCTTCTCCTTTTTGGAGAAG [RAD2 (triplex 31mer)] , its Ka was 6.9 log10 M-1

The measured Ka associated with CCTTCCTTTGGAAGGTTG [RAD23] reads 6.38 log10 M-1

Looking up TTTTCGCGCGTTAACGCGCGAA [RAD16] , I see its Ka listed as 6.46 log10 M-1

CTCTCTCTTTTTCTCTCTCTTTTTGAGAGAG [RAD9] has a reported Ka of 6.95 log10 M-1

Reported Ka ( TTTTCGCGCGTACGCGCGCGAA [RAD15] ) = 6.23 log10 M-1

So, TGGTTGGTTTTTGGAAGGATTTTTTCCTTCC [RAD3] ? Its Ka was 7.38 log10 M-1

Next:
Per the records, this sequence ( TGGGCCGGTAACGGGTTACCGTAAGGTCCC [RAD10] ) has Ka equal to 6.92 log10 M-1

The recorded Ka for entry CCCTCCCTGGGCTTTTTTTGATTTTTCTTAA [RAD4] equals 7.66 log10 M-1

###

Tested on: IgM, monoclonal human (Homo sapiens)
Test: filter
Details: pH 6, 41 mM Na+
valueKind: Ka

Summary for this sequence, CCTTCCTTTGGAAGGTTG [RAD23] : Ka is 6.08 log10 M-1

Field Ka (entry CCTCTTCTTTTTCTTCTC [RAD20] ) reads 7.02 log10 M-1

Lookup result for CCCTCCCTGGGCTTTTTTTGATTTTTCTTAA [RAD4] ; measured Ka: 6.89 log10 M-1

CTCTCTCTTTTTCTCTCTCTTTTTGAGAGAG [RAD9] yielded Ka of 6.79 log10 M-1

Query TTTTCGCGCGTTAACGCGCGAA [RAD16] yields Ka of 6.26 log10 M-1

Lab note: measured Ka of CCTCTTCTTTTTCTTCTCCTTTTTGGAGAAG [RAD2 (triplex 31mer)] was 6.73 log10 M-1

###

Tested on: IgG3, monoclonal human (Homo sapiens)
Experiment: filter
Conditions: pH 6, 41 mM Na+
valueKind: Ka

Below, 2 sequences whose answers are already recorded.
Note to self: Ka recorded for CCTCTTCTTTTTCTTCTC [RAD20] was 6.84 log10 M-1

// field: Ka; key: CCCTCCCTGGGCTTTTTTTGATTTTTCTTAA [RAD4] ; value = 6.66 log10 M-1

Continuing:
Reported Ka ( GAGAGAGTTTTTGAGAGAGTTTTTCTCTCTC [RAD7] ) = 6.74 log10 M-1

// Ka value for TGGTTGGTTTTTGGAAGGATTTTTTCCTTCC [RAD3] : 6.69 log10 M-1

The value of Ka measured for the sequence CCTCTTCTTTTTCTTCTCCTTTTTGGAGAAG [RAD2 (triplex 31mer)] turned out to be 6.64 log10 M-1

According to the records, this sequence CCTTCCTTTGGAAGGTTG [RAD23] displays Ka of 5.62 log10 M-1

###

System: IgG4, monoclonal human (Homo sapiens)
Settings: ultrafiltration, Picogreen; 37.5 mM NaCl, 3.75 mM Na citrate, pH 6.0
Parameter Ka: see the listing below.

Note to self: Ka of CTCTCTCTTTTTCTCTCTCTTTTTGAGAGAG [RAD9] with IgG4, monoclonal human (Homo sapiens) was 7.06 log10 M-1

Measured on IgG4, monoclonal human (Homo sapiens), TTTTCGCGCGTACGCGCGCGAA [RAD15] has a documented Ka of 6.13 log10 M-1

I looked up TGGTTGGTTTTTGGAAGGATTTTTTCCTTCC [RAD3] and its Ka for IgG4, monoclonal human (Homo sapiens) was 7.2 log10 M-1

Ka for IgG4, monoclonal human (Homo sapiens) with input TGGGCCGGTAACGGGTTACCGTAAGGTCCC [RAD10] equals 7 log10 M-1

# lookup: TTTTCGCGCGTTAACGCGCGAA [RAD16] on IgG4, monoclonal human (Homo sapiens), Ka = 6.54 log10 M-1

More entries:
Record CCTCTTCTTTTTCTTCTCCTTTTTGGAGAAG [RAD2 (triplex 31mer)] / IgG4, monoclonal human (Homo sapiens), Ka recorded as 7.08 log10 M-1

The reported IgG4, monoclonal human (Homo sapiens) Ka of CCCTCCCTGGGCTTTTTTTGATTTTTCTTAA [RAD4] is 7.13 log10 M-1

###

In this section we review reported Ka values for a set of sequences.
System: IgG1, monoclonal human (Homo sapiens)
Experiment: filter
Details: pH 6, 41 mM Na+

sequence CCTTCCTTTGGAAGGTTG [RAD23] , Ka observed: 6.14 log10 M-1

Short answer for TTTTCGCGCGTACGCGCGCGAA [RAD15] : Ka was 6.39 log10 M-1

Ka for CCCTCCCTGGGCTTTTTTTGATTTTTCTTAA [RAD4] is 7.52 log10 M-1

Ka reading for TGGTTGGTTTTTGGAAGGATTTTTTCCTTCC [RAD3] : 7.45 log10 M-1

More entries:
get_value(item= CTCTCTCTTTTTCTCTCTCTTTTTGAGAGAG [RAD9] , readout=Ka) returns 7.05 log10 M-1

The recorded Ka for entry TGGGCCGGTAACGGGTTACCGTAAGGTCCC [RAD10] equals 7.04 log10 M-1

Documented Ka of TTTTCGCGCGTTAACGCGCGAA [RAD16] : 6.87 log10 M-1

Field Ka (entry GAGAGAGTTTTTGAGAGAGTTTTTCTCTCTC [RAD7] ) reads 7.3 log10 M-1

Ka measured on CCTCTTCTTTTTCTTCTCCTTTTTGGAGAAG [RAD2 (triplex 31mer)] = 7.04 log10 M-1

Noted for CCTCTTCTTTTTCTTCTC [RAD20] : its Ka reads 7.34 log10 M-1

###

Test system: IgG Fab2 fragment (mouse) (Mus musculus)
Test: filter
Conditions: pH 6, 41 mM Na+
valueKind: Ka

Consider the following illustrative entries.
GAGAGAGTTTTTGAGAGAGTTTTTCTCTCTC [RAD7] yielded Ka of 6.97 log10 M-1

Note to self: Ka recorded for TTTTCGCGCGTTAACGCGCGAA [RAD16] was 6.11 log10 M-1

get_value(item= CCTTCCTTTGGAAGGTTG [RAD23] , readout=Ka) returns 6.33 log10 M-1

What the record says about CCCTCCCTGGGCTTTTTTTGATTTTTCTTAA [RAD4] : Ka is 7.09 log10 M-1

Further cases:
Per the record, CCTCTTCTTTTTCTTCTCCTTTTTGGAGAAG [RAD2 (triplex 31mer)] has Ka of 6.71 log10 M-1

Form field Ka, entry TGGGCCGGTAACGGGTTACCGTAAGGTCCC [RAD10] : 6.76 log10 M-1

Just so you know, measured Ka for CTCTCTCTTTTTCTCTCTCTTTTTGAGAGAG [RAD9] came out at 6.75 log10 M-1

Consider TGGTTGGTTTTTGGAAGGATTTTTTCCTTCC [RAD3] . Its measured Ka is 7.09 log10 M-1

Lab book: Ka of CCTCTTCTTTTTCTTCTC [RAD20] noted as 7.41 log10 M-1

Lab note: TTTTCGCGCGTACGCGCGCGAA [RAD15] gave Ka of 6.21 log10 M-1

###

Test system: IgG2, monoclonal human (Homo sapiens)
Assay: filter
Conditions: pH 6, 41 mM Na+
valueKind: Ka

Sample answers from the record:
Log: IgG2, monoclonal human (Homo sapiens), sequence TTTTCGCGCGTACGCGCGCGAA [RAD15] , Ka = 6.18 log10 M-1

Hey, IgG2, monoclonal human (Homo sapiens) data for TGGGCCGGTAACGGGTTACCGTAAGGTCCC [RAD10] : Ka came out at 7.01 log10 M-1

GET /values?item= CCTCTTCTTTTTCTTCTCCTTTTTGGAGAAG [RAD2 (triplex 31mer)] &system= IgG2, monoclonal human (Homo sapiens) returns Ka: 7.06 log10 M-1

Next:
Here CCTCTTCTTTTTCTTCTC [RAD20] was tested on IgG2, monoclonal human (Homo sapiens), and its Ka came to 7.85 log10 M-1

// assay IgG2, monoclonal human (Homo sapiens), entry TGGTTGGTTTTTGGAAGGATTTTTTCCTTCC [RAD3] , Ka value = 7.36 log10 M-1

Summary line: CCTTCCTTTGGAAGGTTG [RAD23] , IgG2, monoclonal human (Homo sapiens), reported Ka = 6.86 log10 M-1

Per the reported IgG2, monoclonal human (Homo sapiens) data, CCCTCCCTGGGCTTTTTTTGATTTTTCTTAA [RAD4] has Ka of 7.67 log10 M-1

Measured Ka (IgG2, monoclonal human (Homo sapiens)), entry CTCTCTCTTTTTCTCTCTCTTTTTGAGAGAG [RAD9] : 7.05 log10 M-1

Measured Ka for this entry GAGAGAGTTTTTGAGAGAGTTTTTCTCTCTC [RAD7] on IgG2, monoclonal human (Homo sapiens): 7.25 log10 M-1

Test item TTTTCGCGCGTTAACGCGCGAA [RAD16] ; IgG2, monoclonal human (Homo sapiens); reported Ka was 6.11 log10 M-1

This collection of values is drawn from patent US20100233714.
